molecular target: Axl (Homo sapiens); construct: endogenous in cells; host or cells: HeLa cells; experiment: Phospho-Akt in-cell Western assay (inhibition of Axl activity); assay type: cell-based; conditions: Table 4; Hela cells, Axl antibody cross-linking stimulation, phospho-Akt chemiluminescence
Sequence (P30530 26-894): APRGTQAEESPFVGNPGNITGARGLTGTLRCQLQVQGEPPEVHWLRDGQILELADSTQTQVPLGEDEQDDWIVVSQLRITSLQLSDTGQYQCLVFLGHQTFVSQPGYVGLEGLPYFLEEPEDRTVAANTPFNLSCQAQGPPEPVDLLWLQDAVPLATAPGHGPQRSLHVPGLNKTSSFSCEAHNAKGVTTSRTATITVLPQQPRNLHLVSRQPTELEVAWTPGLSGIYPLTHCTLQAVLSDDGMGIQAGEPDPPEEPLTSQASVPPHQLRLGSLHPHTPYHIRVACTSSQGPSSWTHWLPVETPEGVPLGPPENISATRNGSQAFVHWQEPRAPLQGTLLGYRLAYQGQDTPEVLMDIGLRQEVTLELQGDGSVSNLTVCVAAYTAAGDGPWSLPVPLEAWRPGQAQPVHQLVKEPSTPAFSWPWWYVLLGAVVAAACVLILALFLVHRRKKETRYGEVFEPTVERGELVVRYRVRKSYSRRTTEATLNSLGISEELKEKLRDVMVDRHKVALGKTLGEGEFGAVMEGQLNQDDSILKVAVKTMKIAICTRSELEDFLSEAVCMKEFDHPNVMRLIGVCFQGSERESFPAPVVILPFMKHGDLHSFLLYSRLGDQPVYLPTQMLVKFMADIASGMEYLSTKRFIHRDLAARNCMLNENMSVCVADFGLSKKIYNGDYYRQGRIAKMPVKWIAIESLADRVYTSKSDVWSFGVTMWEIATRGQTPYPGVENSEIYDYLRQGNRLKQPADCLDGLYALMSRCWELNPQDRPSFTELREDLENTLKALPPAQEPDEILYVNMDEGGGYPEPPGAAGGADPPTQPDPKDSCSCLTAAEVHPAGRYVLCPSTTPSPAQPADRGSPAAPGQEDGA
pIC50: −log10 of the molar value.
Kindly state pIC50 for each of the entries shown.

Problem: What value of pIC50 has been recorded for this entry: "CC1(C)Oc2ccc(C(=O)n3nc(N)nc3Nc3ccc(N4CCCC4)cc3)cc2NC1=O"
Solution: 4.70 to 5.00

Problem: What value of pIC50 has been recorded for this entry: "CC1(C)Oc2ccc(C(=O)n3nc(N)nc3Nc3ccc(N4CCOCC4)cc3)cc2NC1=O"
Solution: 5.00 to 6.00

Problem: What value of pIC50 has been recorded for this entry: "Nc1nc(Nc2ccccc2)n(C(=O)/C=C/c2ccco2)n1"
Solution: < 4.70

Problem: What value of pIC50 has been recorded for this entry: "Nc1nc(Nc2ccc(OCCN3CC[C@H](F)C3)cc2)n(C(=O)c2ccc3cc[nH]c3c2)n1"
Solution: > 6.00

Problem: What value of pIC50 has been recorded for this entry: "Nc1nc(Nc2ccc(OCCN3CC[C@H](F)C3)cc2)n(C(=O)c2ccc3c(c2)OCCO3)n1"
Solution: > 6.00

Problem: What value of pIC50 has been recorded for this entry: "Nc1nc(Nc2ccc(OCCN3CCCC3)cc2)n(C(=O)c2cc3ccccc3s2)n1"
Solution: 5.00 to 6.00

Problem: What value of pIC50 has been recorded for this entry: "Nc1nc(Nc2ccc(OCCn3ccnc3)cc2)n(C(=O)c2ccc3cc[nH]c3c2)n1"
Solution: > 6.00

Problem: What value of pIC50 has been recorded for this entry: "CC(C)Oc1ccc(Nc2nc(N)nn2C(=O)c2ccc3c(c2)NC(=O)C(C)(C)O3)cc1"
Solution: 5.00 to 6.00

Problem: What value of pIC50 has been recorded for this entry: "Nc1nc(Nc2ccc(OCCn3ccnc3)cc2)n(C(=O)c2ccc3sccc3c2)n1"
Solution: > 6.00
